ASSAY NOTES: Phase solubility study: solubility of pure ALB in distilled water
Type: physicochemical
EXPERIMENTAL CONDITIONS: thermodynamic from solid, 25 °C, approximate

>  <SMILES REPR>
CCc1cc2c(cc1N1CCC(N3CCOCC3)CC1)C(C)(C)c1[nH]c3cc(C#N)ccc3c1C2=O

>  <solubility at 2 days>
~1 µg/mL

$$$$

----------
ASSAY NOTES: Oral pharmacokinetic (bioavailability) study in rats, non-compartmental analysis
Assay type: in vivo, Wistar rats
EXPERIMENTAL CONDITIONS: male, Wistar, rat, plasma, po, 15 mg/kg
ATTRIBUTE MEASURED: AUC(0-inf) (ng·h/mL)

>  <COMPOUND>
CCc1cc2c(cc1N1CCC(N3CCOCC3)CC1)C(C)(C)c1[nH]c3cc(C#N)ccc3c1C2=O [ALB, Alectinib]

>  <MEASURED VALUE>
7280

$$$$
